Values were extracted from ChEMBL document CHEMBL5038655.

AUC(0-inf) overview
# PROTOCOL_SUMMARY: AUC(0 to infinity) in Sprague-Dawley rat at 10 mg/kg, po measured upto 12 hrs by LC-MS/MS analysis
# Assay type: ADME, organism-based
# Design: route oral, dose 10 mg/kg, time <=12
# PROTOCOL_CONDITIONS: in vivo
Kindly answer with a numeric value in ng·h/mL, unit omitted.

For Cc1cc(/C=C/C#N)cc(C)c1Oc1nc(NC2CCN(c3ccc(NS(C)(=O)=O)cc3)CC2)nc2c1COC2 , write its AUC(0-inf). 753

Give AUC(0-inf) for Cc1cc(/C=C/C#N)cc(C)c1Oc1nc(NC2CCN(Cc3ccc(C(N)=O)cc3)CC2)nc2c1COC2 809

###

# PROTOCOL_SUMMARY: Tmax in Sprague-Dawley rat at 2 mg/kg, iv measured upto 10 hrs by LC-MS/MS analysis
# Format: ADME, organism-based
# PROTOCOL_CONDITIONS: in vivo
Item-by-item account of Tmax

[[record]]
compound_string = "Cc1cc(/C=C/C#N)cc(C)c1Oc1nc(NC2CCN(Cc3ccc(C(N)=O)cc3)CC2)nc2c1COC2"
val = "1.98 min"


# return recorded Tmax for entry Cc1cc(/C=C/C#N)cc(C)c1Oc1nc(NC2CCN(c3ccc(NS(C)(=O)=O)cc3)CC2)nc2c1COC2 1.98 min

###

# PROTOCOL_SUMMARY: Terminal half life in Sprague-Dawley rat at 2 mg/kg, iv measured upto 10 hrs by LC-MS/MS analysis
# Assay type: ADME, organism-based
# PROTOCOL_CONDITIONS: in vivo, read-out: beta t1/2 (converted)
READOUT_KIND: half-life (min)
Field format: number, assumed min, no unit text.

Given the compound Cc1cc(/C=C/C#N)cc(C)c1Oc1nc(NC2CCN(Cc3ccc(C(N)=O)cc3)CC2)nc2c1COC2 , write its reported half-life. 52.8

Answer with the recorded half-life for the compound listed here: Cc1cc(/C=C/C#N)cc(C)c1Oc1nc(NC2CCN(c3ccc(NS(C)(=O)=O)cc3)CC2)nc2c1COC2 66.6

###

# PROTOCOL_SUMMARY: Clearance in Sprague-Dawley rat at 2 mg/kg, iv measured upto 10 hrs by LC-MS/MS analysis
# Format: ADME, organism-based
# PROTOCOL_CONDITIONS: in vivo
READOUT_KIND: clearance

[[record]]
compound_string = "Cc1cc(/C=C/C#N)cc(C)c1Oc1nc(NC2CCN(Cc3ccc(C(N)=O)cc3)CC2)nc2c1COC2"
val = "66.3 mL/min/kg"


Could you now consider this next molecule?
Given Cc1cc(/C=C/C#N)cc(C)c1Oc1nc(NC2CCN(c3ccc(NS(C)(=O)=O)cc3)CC2)nc2c1COC2 , respond with its clearance. 36.7 mL/min/kg

###

# Test system: Human immunodeficiency virus 1
# PROTOCOL_SUMMARY: Antiviral activity against HIV-1 harboring reverse transcriptase F227L/V106A mutant infected in human MT4 cells assessed as protection against virus-induced cytopathic effect incubated for 5 days by MTT assay
# PROTOCOL_CONDITIONS: Human immunodeficiency virus 1, MT4, 120 h
READOUT_KIND: log10 of EC50 (log10 of the value in nM)
All values: base-10 log of EC50 in nM.

Sample answers from the record:
[[record]]
compound = "Cc1cc(/C=C/C#N)cc(C)c1Oc1nc(NC2CCN(c3ccc(NS(N)(=O)=O)cc3)CC2)nc2c1COC2"
tgt = "Human immunodeficiency virus 1"
val = 1.30

[[record]]
compound = "Cc1cc(/C=C/C#N)cc(C)c1Oc1nc(NC2CCN(c3ccc(NS(C)(=O)=O)cc3)CC2)nc2c1COC2"
tgt = "Human immunodeficiency virus 1"
val = 0.76

[[record]]
compound = "Cc1cc(/C=C/C#N)cc(C)c1Oc1nc(NC2CCN(Cc3ccc(S(N)(=O)=O)cc3)CC2)nc2c1COC2"
tgt = "Human immunodeficiency virus 1"
val = 1.08

[[record]]
compound = "Cc1cc(/C=C/C#N)cc(C)c1Oc1nc(NC2CCN(Cc3ccc(N)cc3)CC2)nc2c1COC2"
tgt = "Human immunodeficiency virus 1"
val = 1.58

[[record]]
compound = "Cc1cc(/C=C/C#N)cc(C)c1Oc1nc(NC2CCN(Cc3ccc(C(N)=O)cc3)CC2)nc2c1COC2"
tgt = "Human immunodeficiency virus 1"
val = 0.99


Then there is this compound:
Provide only the value of recorded log10 of EC50 for Cc1cc(/C=C/C#N)cc(C)c1Oc1nc(NC2CCN(Cc3ccc([N+](=O)[O-])cc3)CC2)nc2c1COC2 1.78

###

# PROTOCOL_SUMMARY: Selectivity index, ratio of CC50 for human MT4 cells to EC50 for antiviral activity against HIV-1 IIIB infected in human MT4 cells
# Assay type: toxicity, cell-based
# PROTOCOL_CONDITIONS: MT4 cells (uninfected and infected with HIV-1 IIIB), read-out: Ratio CC50/EC50
Quick reference for selectivity ratio among some compounds
Number only, no unit.

Solved entries:
[[record]]
compound_string = "Cc1cc(/C=C/C#N)cc(C)c1Oc1nc(NC2CCN(c3ccc(S(C)(=O)=O)cc3)CC2)nc2c1COC2"
val = 16500

[[record]]
compound_string = "Cc1cc(/C=C/C#N)cc(C)c1Oc1nc(NC2CCN(Cc3ccc(C(F)(F)F)cc3)CC2)nc2c1COC2"
val = 256


Query selectivity ratio for Cc1cc(/C=C/C#N)cc(C)c1Oc1nc(NC2CCN(c3ccc(NS(C)(=O)=O)cc3)CC2)nc2c1COC2 6290

###

# PROTOCOL_SUMMARY: Terminal half life in Sprague-Dawley rat at 10 mg/kg, po measured upto 12 hrs by LC-MS/MS analysis
# Assay type: ADME, organism-based
# PROTOCOL_CONDITIONS: in vivo, read-out: beta t1/2 (converted)
Catalogue of half-life readings, one per entry.
Reply numerically in h, unit not repeated.

[[record]]
compound_string = "Cc1cc(/C=C/C#N)cc(C)c1Oc1nc(NC2CCN(c3ccc(NS(C)(=O)=O)cc3)CC2)nc2c1COC2"
readout_kind = "half-life"
val = 1.47


Please turn your attention to the following entry.
Name the recorded half-life of the molecule listed here: Cc1cc(/C=C/C#N)cc(C)c1Oc1nc(NC2CCN(Cc3ccc(C(N)=O)cc3)CC2)nc2c1COC2 1.05

###

# PROTOCOL_SUMMARY: Selectivity index, ratio of CC50 for human MT4 cells to EC50 for antiviral activity against HIV-1 IIIB infected in human MT4 cells
# Format: toxicity, cell-based
# PROTOCOL_CONDITIONS: MT4 cells (uninfected and infected with HIV-1 IIIB), read-out: Ratio CC50/EC50
Listed here are compounds together with their documented selectivity ratio.
Keep the answer to the number alone.

[[record]]
compound_string = "Cc1cc(/C=C/C#N)cc(C)c1Oc1nc(NC2CCN(Cc3ccc(C(N)=O)cc3)CC2)nc2c1COC2"
readout_kind = "selectivity ratio"
val = 8450

[[record]]
compound_string = "Cc1cc(/C=C/C#N)cc(C)c1Oc1nc(NC2CCN(c3ccc(N)cc3)CC2)nc2c1COC2"
readout_kind = "selectivity ratio"
val = 258


Now turn to the next compound.
Identify measured selectivity ratio corresponding to Cc1cc(/C=C/C#N)cc(C)c1Oc1nc(NC2CCN(Cc3ccc(S(N)(=O)=O)cc3)CC2)nc2c1COC2 2360

###

# PROTOCOL_SUMMARY: Cytotoxicity against human MT4 cells assessed as reduction in cell viability incubated for 5 days by MTT assay
# Assay type: toxicity, cell-based
# PROTOCOL_CONDITIONS: time 5 day
Binned CC50 at 120 h; ranges: low: < 10 µM; mid: ≥ 10 µM and < 30 µM; high: ≥ 30 µM

Would you please look over these solved cases?
[[record]]
compound_string = "Cc1cc(/C=C/C#N)cc(C)c1Oc1nc(NC2CCN(Cc3ccc(N)cc3)CC2)nc2c1COC2"
class_label = "mid"

[[record]]
compound_string = "Cc1cc(/C=C/C#N)cc(C)c1Oc1nc(NC2CCN(c3ccc(S(N)(=O)=O)cc3)CC2)nc2c1COC2"
class_label = "mid"

[[record]]
compound_string = "Cc1cc(/C=C/C#N)cc(C)c1Oc1nc(NC2CCN(c3ccc(C(N)=O)cc3)CC2)nc2c1COC2"
class_label = "high"

[[record]]
compound_string = "Cc1cc(/C=C/C#N)cc(C)c1Oc1nc(NC2CCN(c3ccc(N)cc3)CC2)nc2c1COC2"
class_label = "low"

[[record]]
compound_string = "Cc1cc(/C=C/C#N)cc(C)c1Oc1nc(NC2CCN(Cc3ccc(C(F)(F)F)cc3)CC2)nc2c1COC2"
class_label = "low"


Bin? Cc1cc(/C=C/C#N)cc(C)c1Oc1nc(NC2CCN(Cc3ccc(C(N)=O)cc3)CC2)nc2c1COC2 mid

# bin label for Cc1cc(/C=C/C#N)cc(C)c1Oc1nc(NC2CCN(c3ccc(NS(C)(=O)=O)cc3)CC2)nc2c1COC2 high

Band of Cc1cc(/C=C/C#N)cc(C)c1Oc1nc(NC2CCN(c3ccc(S(C)(=O)=O)cc3)CC2)nc2c1COC2 ? high

Could you place Cc1cc(/C=C/C#N)cc(C)c1Oc1nc(NC2CCN(Cc3ccc(S(N)(=O)=O)cc3)CC2)nc2c1COC2 in its proper category? Many thanks. mid

Assign a bin to Cc1cc(/C=C/C#N)cc(C)c1Oc1nc(NC2CCN(c3ccc(NS(N)(=O)=O)cc3)CC2)nc2c1COC2 mid

Pick a category. Item: Cc1cc(/C=C/C#N)cc(C)c1Oc1nc(NC2CCN(Cc3ccc([N+](=O)[O-])cc3)CC2)nc2c1COC2 low
